Values were extracted from PubChem BioAssay (NCI).

# Test system: COLO 205 colon
# Protocol Text: NCI tumour cell line growth inhibition, 48 h
Where a SMILES comes first, the peptide text is derived from it. The star is where a group is joined. Trt = c1ccc(C(c2ccccc2)(c2ccccc2)*)cc1; Cbz = O=C(OCc1ccccc1)*
Property Name: TGI

1. COc1cc(/C=C/C(=O)c2cccc(-n3cc(-c4cc(OC)c(OC)c(OC)c4)[nH]c3=O)c2)cc(OC)c1OC; 3.13 µM
2. COc1ccc2c(c1)OC(N)=C(C#N)C2c1cc(OC)c(OC)c(OC)c1 (stereo unspecified); 0.061 µM
3. CO[C@H]1C[C@@H]2CC[C@@H](C)[C@@](O)(O2)C(=O)C(=O)N2CCCC[C@H]2C(=O)O[C@H]([C@H](C)C[C@@H]2CC[C@@H](OC(=O)C(C)(CO)CO)[C@H](OC)C2)CC(=O)[C@H](C)/C=C(\C)[C@@H](O)[C@@H](OC)C(=O)[C@H](C)C[C@H](C)\C=C/C=C/C=C/1C; > 10 µM
4. Cc1ccc(/C=C2\Sc3scc(-c4ccccc4)[n+]3C2=O)cc1; 52.4 µM
5. Cc1c(O)c(=O)ccn1CCN; > 100 µM
6. C#Cc1cccc(Nc2ncnc3cc(NC(=O)CCl)ccc23)c1; 7.45 µM
7. COC(=O)C1CC2C=CC=CC(=O)C2(C)C1 (stereo unspecified); > 100 µM
8. NS(=O)(=O)c1ccc(Nc2cc(-c3ccc(O)c(F)c3)[nH]n2)cc1; > 25 µM
9. COC(=O)C(=O)Cc1nc2ccccc2s1; > 100 µM
10. COc1cc(OC2OC(CO)C(O)C(O)C2O)c2c(O)c3c(=O)cc(C)oc3cc2c1 (stereo unspecified); > 100 µM
11. O=C1CC(c2c[nH]c3ccc(F)cc23)C(=O)N1 (stereo unspecified); > 100 µM
12. CCOC(=O)c1c2ccc(/C=C/c3ccccn3)ccc-2c(C(=O)OCC)c1N; > 100 µM
13. CCCCC1=CSC(c2ccccc2)=C(c2ccccc2)S1; > 100 µM
14. Nc1nnc2c(-c3ccccc3)[nH]nc2n1; > 100 µM
15. C=C1C[C@H]2C=Nc3cc(OCCCOc4cc5c(cc4OC)C(=O)N4CC(=C)C[C@H]4C=N5)c(OC)cc3C(=O)N2C1; 0.0343 µM
16. CN=C(N)c1ccc(N=C(N)c2ccc(-c3ccc(C(N)=Nc4ccc(C(N)=NC)cc4)cc3)cc2)cc1; > 100 µM
17. COc1ccc(C2=Nc3c(nc(OC)[nH]c3=O)NC(c3ccccc3)C2)cc1 (stereo unspecified); 50.3 µM
18. CC(CSC(=N)N)C(N)=O (stereo unspecified); > 100 µM
19. COC(=O)C(CO)NC(=O)C(CSC(c1ccccc1)(c1ccccc1)c1ccccc1)NC(=O)OCc1ccccc1 (stereo unspecified) (Cbz-Cys(Trt)-Ser-OMe; configuration not given here); 32.4 µM
20. CC1(C)C2CCC3CC(CCC#N)CCC3C21C#N (stereo unspecified); > 100 µM
21. Clc1nccc2c(-c3csc(-c4c[nH]c5ccc(Br)cc45)n3)c[nH]c12; 5.61 µM
22. Clc1ccc(Nc2nnc(CNc3ccc(-c4nnc(Nc5ccc(Cl)cc5)s4)cc3)s2)cc1; 45.3 µM
23. CC1=C(c2nc3ccccc3s2)C(=O)OC1(C)C; > 100 µM
24. O=[N+]([O-])c1ccc(SN=S=NSc2cccc(SN=S=NSc3ccc([N+](=O)[O-])cc3)c2)cc1; > 100 µM
25. C[C@H]1CC[P+](Cc2ccccc2)(c2ccccc2)C1 (stereo partly specified); > 100 µM
26. Clc1ccc(Cl)c(N=Nc2cc3c4c(c2)CCN4CCC3)c1; > 10 µM
